The measured values listed here are drawn from patent US10597388B2.

# Tested on: ryegrass, Italian (Italian ryegrass, Lolium multiflorum)
# assay summary: Test A greenhouse herbicide test, pre- and postemergence
# Assay type: in vivo
# measurement context: Postemergence, 500 g ai/ha; visual rating after approx. 10 d, 0 to 100 scale (0 no effect, 100 complete control)
# Text: […]
parameter measured: Plant response rating, Ryegrass, Italian
Just the number, please, no unit after it.

| compound structure string | endpoint result |
| --- | --- |
| Cc1sc2ccc(C(F)(F)F)cc2c1-c1c(O)c(Cl)nn(C)c1=O | 100 |
| COC(=O)Oc1cnn(C)c(=O)c1-c1c(C)sc2ccccc12 | 100 |
| CCC(=O)Oc1c(OC)nn(C)c(=O)c1-c1c(C)sc2ccc(Cl)cc12 | 90 |

Reported Plant response rating, Ryegrass, Italian for ryegrass, Italian (Italian ryegrass, Lolium multiflorum), given CCC(=O)Oc1c(C)nn(C)c(=O)c1-c1ccc(Br)c2ccccc12 ?
100

Reported Plant response rating, Ryegrass, Italian for ryegrass, Italian (Italian ryegrass, Lolium multiflorum), given CC(=O)Oc1c(C)nn(C)c(=O)c1-c1c(C)sc2ccc(Cl)cc12 ?
100

###

Reported Plant response rating, Soybean by item:
# Tested on: soybean (Glycine max)
# assay summary: Test C greenhouse herbicide test, pre- and postemergence
# Assay type: in vivo
# measurement context: Preemergence, 62 g ai/ha; scale 0 to 100, 0 is no effect, 100 is complete control

Solved cases below.
| compound | test target | parameter measured | endpoint result |
| --- | --- | --- | --- |
| CCC(=O)Oc1c(C)nn(C)c(=O)c1-c1ccc(Br)c2ccccc12 [Compound 134] | soybean (Glycine max) | Plant response rating, Soybean | 45 |
| Cc1ccc2sc(Br)c(-c3c(O)c(C)nn(C)c3=O)c2c1 [Compound 79] | soybean (Glycine max) | Plant response rating, Soybean | 0 |
| Cc1nn(C)c(=O)c(-c2c(C)sc3c(C)cc(Cl)cc23)c1O [Compound 35] | soybean (Glycine max) | Plant response rating, Soybean | 0 |
| CCCC(=O)Oc1c(C)nn(C)c(=O)c1-c1c(CC)sc2ccc(C)cc12 [Compound 107] | soybean (Glycine max) | Plant response rating, Soybean | 0 |

In the following, a different compound is considered.
Reported Plant response rating, Soybean for soybean (Glycine max), given COC(=O)Oc1cnn(C)c(=O)c1-c1c(C)sc2ccccc12 [Compound 97] ?
10

###

Reported Wheat, Winter plant response rating by item:
# System: wheat, winter (winter wheat, Triticum aestivum)
# assay summary: Test D controlled growth environment herbicide test, pre- and postemergence
# Type: in vivo
# measurement context: Postemergence, 31 g ai/ha; scale 0 to 100 (0 no effect, 100 complete control)
Just the number, please, no unit after it.

Solved cases below.
| compound structure string | test target | Wheat, Winter plant response rating |
| --- | --- | --- |
| Cc1nn(C)c(=O)c(-c2cccc3ccc(Br)cc23)c1O | wheat, winter (winter wheat, Triticum aestivum) | 0 |
| Cc1ccc2sc(Br)c(-c3c(O)c(C)nn(C)c3=O)c2c1 | wheat, winter (winter wheat, Triticum aestivum) | 0 |
| Cn1nc(Br)c(O)c(-c2cccc3ccccc23)c1=O | wheat, winter (winter wheat, Triticum aestivum) | 0 |
| CCc1sc2c(C)cc(C)cc2c1-c1c(O)c(C)nn(C)c1=O | wheat, winter (winter wheat, Triticum aestivum) | 5 |
| Cc1nn(C)c(=O)c(-c2cccc3ccccc23)c1O | wheat, winter (winter wheat, Triticum aestivum) | 10 |
| Cc1nn(C)c(=O)c(-c2c(C)sc3ccc(Br)cc23)c1O | wheat, winter (winter wheat, Triticum aestivum) | 5 |

In the following, a different molecule is considered.
What measured Wheat, Winter plant response rating goes with Cc1ccc2sc(C)c(-c3c(OC(=O)OC(C)C)c(C)nn(C)c3=O)c2c1 ?
0

###

# Test system: pigweed (Amaranthus retroflexus)
# assay summary: Test D controlled growth environment herbicide test, pre- and postemergence
# Format: in vivo
# measurement context: Preemergence, 31 g ai/ha
Tick yes if Plant response rating (scale of 0 to 100), Pigweed is 80 or greater. Tick no if Plant response rating (scale of 0 to 100), Pigweed is less than 80.

// known answers, use as guide
| molecule | label |
| --- | --- |
| Cc1nn(C)c(=O)c(-c2ccc(Br)c3ccccc23)c1O [Compound 75] | yes |
| Cc1cc2ccccc2c(-c2c(O)c(C)nn(C)c2=O)c1C [Compound 34] | no |
| CCCC(=O)Oc1c(C)nn(C)c(=O)c1-c1c(C)sc2ccc(C)cc12 [Compound 105] | yes |
| CC(=O)Oc1c(C)nn(C)c(=O)c1-c1c(C)sc2ccc(Cl)cc12 [Compound 108] | yes |

Test whether the molecule Cc1cc(C)c2sc(C)c(-c3c(O)c(C)nn(C)c3=O)c2c1 [Compound 2] records Plant response rating (scale of 0 to 100), Pigweed of 80 or higher.
no

Test whether the molecule Cc1nn(C)c(=O)c(-c2cccc3ccccc23)c1O [Compound 11] records Plant response rating (scale of 0 to 100), Pigweed of 80 or higher.
no

###

Reported Plant response rating, Ryegrass, Italian by item:
# Tested on: ryegrass, Italian (Italian ryegrass, Lolium multiflorum)
# assay summary: Test C greenhouse herbicide test, pre- and postemergence
# Format: in vivo
# measurement context: Postemergence, 250 g ai/ha; scale 0 to 100, 0 no effect, 100 complete control; 13 to 15 d
Just the number, please, no unit after it.

| compound structure string | Plant response rating, Ryegrass, Italian |
| --- | --- |
| Cc1cc(C)c2sc(C)c(-c3c(O)c(C)nn(C)c3=O)c2c1 | 90 |

In the following, a different molecule is considered.
What measured Plant response rating, Ryegrass, Italian goes with Cc1sc2ccccc2c1-c1c(O)c(Cl)nn(C)c1=O ?
80

###

# Test system: deadnettle (henbit deadnettle, Lamium amplexicaule)
# assay summary: Test D controlled growth environment herbicide test, pre- and postemergence
# Assay type: in vivo
# measurement context: Preemergence, 125 g ai/ha; scale 0 to 100 (0 no effect, 100 complete control)
# From the text: […]
Reported Plant response rating, Deadnettle by item:
Just the number, please, no unit after it.

Reported Plant response rating, Deadnettle for deadnettle (henbit deadnettle, Lamium amplexicaule), given CCc1sc2c(C)cc(C)cc2c1-c1c(O)c(C)nn(C)c1=O [Compound 57] ?
25

Reported Plant response rating, Deadnettle for deadnettle (henbit deadnettle, Lamium amplexicaule), given CCCC(=O)Oc1c(C)nn(C)c(=O)c1-c1c(C)sc2ccc(C)cc12 [Compound 105] ?
15

Reported Plant response rating, Deadnettle for deadnettle (henbit deadnettle, Lamium amplexicaule), given Cc1nn(C)c(=O)c(-c2ccc(Br)c3ccccc23)c1O [Compound 75] ?
90

###

# System: crabgrass, large (large crabgrass, Digitaria sanguinalis)
# assay summary: Test C greenhouse herbicide test, pre- and postemergence
# Format: in vivo
# measurement context: Postemergence, 250 g ai/ha; scale 0 to 100, 0 no effect, 100 complete control; 13 to 15 d
parameter measured: Plant response rating, Crabgrass, Large

Solved cases below.
| compound structure string | test target | Plant response rating, Crabgrass, Large |
| --- | --- | --- |
| COC(=O)Oc1c(C)nn(C)c(=O)c1-c1ccc(Br)c2ccccc12 | crabgrass, large (large crabgrass, Digitaria sanguinalis) | 20 |
| Cc1ccc2sc(C)c(-c3c(OC(=O)OC(C)C)c(C)nn(C)c3=O)c2c1 | crabgrass, large (large crabgrass, Digitaria sanguinalis) | 45 |
| Cc1nn(C)c(=O)c(-c2ccc(Br)c3ccccc23)c1O | crabgrass, large (large crabgrass, Digitaria sanguinalis) | 20 |
| CCC(=O)Oc1c(C)nn(C)c(=O)c1-c1c(C)ccc2ccccc12 | crabgrass, large (large crabgrass, Digitaria sanguinalis) | 10 |
| Cc1cc(C)c2ccccc2c1-c1c(O)c(C)nn(C)c1=O | crabgrass, large (large crabgrass, Digitaria sanguinalis) | 55 |
| Cc1ccc2sc(Br)c(-c3c(O)c(C)nn(C)c3=O)c2c1 | crabgrass, large (large crabgrass, Digitaria sanguinalis) | 35 |

What measured Plant response rating, Crabgrass, Large goes with CC(=O)Oc1c(C)nn(C)c(=O)c1-c1c(C)sc2ccc(C(F)(F)F)cc12 ?
25

What measured Plant response rating, Crabgrass, Large goes with CCc1sc2ccc(C)cc2c1-c1c(O)c(C)nn(C)c1=O ?
35

What measured Plant response rating, Crabgrass, Large goes with CC(=O)Oc1c(C)nn(C)c(=O)c1-c1c(C)cc(C)c2ccccc12 ?
50

###

# Test system: velvetleaf (Abutilon theophrasti)
# assay summary: Test C greenhouse herbicide test, pre- and postemergence
# Assay type: in vivo
# measurement context: postemergence, 62 g ai/ha; scale 0 to 100, 0 no effect, 100 complete control
Sorting guide: entries reporting Velvetleaf plant response rating beneath 80 go in the yes pile, the rest go in the no pile.

| compound structure string | label |
| --- | --- |
| COC(=O)Oc1c(C)nn(C)c(=O)c1-c1c(C)sc2ccc(C)cc12 | no |

Confirm or reject: Velvetleaf plant response rating of Cc1nn(C)c(=O)c(-c2c(C)sc3c(C)cc(Cl)cc23)c1O lies strictly below 80
no

Confirm or reject: Velvetleaf plant response rating of Cc1ccc2sc(Br)c(-c3c(O)c(C)nn(C)c3=O)c2c1 lies strictly below 80
no

Confirm or reject: Velvetleaf plant response rating of CCC(=O)Oc1c(C)nn(C)c(=O)c1-c1c(C)ccc2ccccc12 lies strictly below 80
yes

Confirm or reject: Velvetleaf plant response rating of Cc1ccc2ccccc2c1-c1c(O)c(Br)nn(C)c1=O lies strictly below 80
no

Confirm or reject: Velvetleaf plant response rating of CC(=O)Oc1c(C)nn(C)c(=O)c1-c1c(C)cc(C)c2ccccc12 lies strictly below 80
no

Confirm or reject: Velvetleaf plant response rating of Cc1ccc2sc(C)c(-c3c(OC(=O)C(C)(C)C)c(C)nn(C)c3=O)c2c1 lies strictly below 80
yes
